Entry source: patent US20060270640A1

test: Intravaginal 1,25-(OH)2D3 in raised cows: 1,25-(OH)2D3 concentration in plasma, RIA (Example 2); type: in vivo, cow; details: female, Holstein, bovine, plasma, other: intravaginal; 6 hours after intravaginal 1 μg/kg; n=5; p<0.01 vs 0 hour
Experimental endpoint: concentration at 6 h (ng/mL)
A number alone suffices; assume ng/mL.

Quick one: concentration at 6 h of C=C1/C(=C\C=C2/CCC[C@]3(C)[C@@H]([C@H](C)CCCC(C)(C)O)CC[C@@H]23)C[C@@H](O)C[C@@H]1O [1,25-(OH)2D3, 1,25-dihydroxyvitamin D3] ? 1.97

---

Assay: Dose-response test of 1,25-(OH)2D3, intravaginal vs intravenous: 1,25-(OH)2D3 in plasma and bioavailability (Example 3)
Type: in vivo, cow
Conditions: female, Holstein, bovine, plasma, other: intravaginal; 0 hour; intravaginal 0.125 μg/kg; ovariectomized cows; read-out: 1,25-(OH)2D3 level in plasma
Method: Hereinafter, the present invention will further be described with reference to Examples and Comparative Example. However, the present invention is not intended to be limited to them by any means. In the examples described below, a 1,25-(OH)2D3 concentration in plasma was determined using a radioimmunoassay kit (1,25-(OH)2D RIA kit, Immunodiagnostic Systems Limited, UK). […] A creatinine concentration in urine was determined by a Jaffe method. […]
Experimental endpoint: concentration at 0 h
Record the result as number plus unit.

For the compound C=C1/C(=C\C=C2/CCC[C@]3(C)[C@@H]([C@H](C)CCCC(C)(C)O)CC[C@@H]23)C[C@@H](O)C[C@@H]1O [1,25-(OH)2D3, 1,25-dihydroxyvitamin D3] , what concentration at 0 h is on record? 7.4 pg/mL
